assayed_target: kinases (kinome) (Homo sapiens, UniProt Q13418)
Construct: determined in kinobeads assays with mass spectrometry detection of kinases as described previously; endogenous in cells
Sequence (Q13418 whole entry): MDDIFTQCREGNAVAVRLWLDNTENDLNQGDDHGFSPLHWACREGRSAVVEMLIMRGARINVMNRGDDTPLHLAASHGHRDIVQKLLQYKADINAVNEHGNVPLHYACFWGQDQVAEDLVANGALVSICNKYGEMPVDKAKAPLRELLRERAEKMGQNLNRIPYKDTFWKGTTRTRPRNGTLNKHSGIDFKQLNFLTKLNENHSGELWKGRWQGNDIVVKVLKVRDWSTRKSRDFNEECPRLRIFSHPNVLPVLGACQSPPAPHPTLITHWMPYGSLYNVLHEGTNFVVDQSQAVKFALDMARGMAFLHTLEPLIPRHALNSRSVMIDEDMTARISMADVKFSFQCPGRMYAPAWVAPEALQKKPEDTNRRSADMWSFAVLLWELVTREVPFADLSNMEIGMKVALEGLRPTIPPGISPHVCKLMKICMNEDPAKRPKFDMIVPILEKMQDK
assay: kinobeads assay with mass spectrometry detection of kinases (kinase selectivity profile)
condition_summary: ILK (TKL), IPI00013219
pIC50: −log10 of the molar value.
Quick reference: pIC50 of the listed items.

Reference set, count: 4
mol	pIC50
CCNC(=O)Nc1ccc(-c2cc(-c3ccccc3C#N)nc(N3CCOC[C@@H]3C)n2)cc1	< 5.00
C[C@H]1COCCN1c1nc(-c2ccc(NC(=O)NC3CC3)cc2)cc(-c2ccccc2S(C)(=O)=O)n1	< 5.00
C[C@H]1COCCN1c1nc(-c2ccc(NC(=O)N[C@H]3CCC[C@@H]3O)cc2)cc(-c2cc(F)ccc2S(C)(=O)=O)n1	< 5.00
C[C@H]1COCCN1c1cc(-c2ccccn2)nc(-c2ccc(NC(=O)NCCO)cc2)n1	< 5.00

Then there is this molecule:
In: Any idea what pIC50 came out for C[C@H]1COCCN1c1nc(-c2ccc(NC(=O)NC3CC3)cc2)cc(-c2cc(F)ccc2S(C)(=O)=O)n1 on kinases (kinome) (Homo sapiens, UniProt Q13418)?
Out: < 5.00

----------
assayed_target: kinases (kinome) (Homo sapiens)
Construct: determined in kinobeads assays with mass spectrometry detection of kinases as described previously; endogenous in cells
assay: kinobeads assay with mass spectrometry detection of kinases (kinase selectivity profile)
condition_summary: MARK2 (CAMK), IPI00555838
property: IC50

Some compounds with known IC50 results, for comparison:
mol	property	experimental_result
C[C@H]1COCCN1c1cc(-c2ccccn2)nc(-c2ccc(NC(=O)NCCO)cc2)n1	IC50	> 10 µM
C[C@H]1COCCN1c1nc(-c2ccc(NC(=O)NC3CC3)cc2)cc(-c2cc(F)ccc2S(C)(=O)=O)n1	IC50	> 10 µM
C[C@H]1COCCN1c1cc(-c2ccccc2S(C)(=O)=O)nc(-c2ccc(NC(=O)NC3CC3)cc2)n1	IC50	> 10 µM

In: Recorded IC50 of C[C@H]1COCCN1c1nc(-c2ccc(NC(=O)N[C@H]3CCC[C@@H]3O)cc2)cc(-c2cc(F)ccc2S(C)(=O)=O)n1 , please.
Out: > 10 µM

----------
assayed_target: mTOR (Homo sapiens, UniProt P42345)
Construct: endogenous in cells; host or cells: Jurkat cells (ATCC TIB-152, clone E6-1), lysate
assay: mTOR kinobeads assay (dot blot detection)
Type: binding
condition_summary: Table 4, read-out: Inhibition values (IC50) mTOR
The following compounds are shown together with reported IC50 values.

Solved cases below.
compound	assayed_target	IC50
C[C@H]1COCCN1c1cc(-c2cc(F)ccc2S(C)(=O)=O)nc(-c2ccc(NC(=O)NCCF)cc2F)n1 [Example 68]	mTOR (Homo sapiens, UniProt P42345)	1000 to 10000 nM
CCNC(=O)Nc1ccc(-c2nccc(N3CCOC[C@@H]3C)n2)cc1 [Example 37]	mTOR (Homo sapiens, UniProt P42345)	100 to 1000 nM
CCNC(=O)Nc1ccc(-c2nccc(N3CCOCC3)n2)cc1 [Example 36]	mTOR (Homo sapiens, UniProt P42345)	1000 to 10000 nM

Now turn to the next compound.
In: Give the measured IC50 of C[C@H]1COCCN1c1nc(-c2ccc(NC(=O)NCCO)cc2)cc(-c2cc(F)ccc2S(C)(=O)=O)n1 [Example 41] .
Out: < 100 nM

----------
assayed_target: DNA-dependent protein kinase (DNA-PK) (Homo sapiens)
Construct: endogenous in cells; host or cells: Jurkat cells (ATCC TIB-152, clone E6-1), lysate
Sequence (P78527 whole entry): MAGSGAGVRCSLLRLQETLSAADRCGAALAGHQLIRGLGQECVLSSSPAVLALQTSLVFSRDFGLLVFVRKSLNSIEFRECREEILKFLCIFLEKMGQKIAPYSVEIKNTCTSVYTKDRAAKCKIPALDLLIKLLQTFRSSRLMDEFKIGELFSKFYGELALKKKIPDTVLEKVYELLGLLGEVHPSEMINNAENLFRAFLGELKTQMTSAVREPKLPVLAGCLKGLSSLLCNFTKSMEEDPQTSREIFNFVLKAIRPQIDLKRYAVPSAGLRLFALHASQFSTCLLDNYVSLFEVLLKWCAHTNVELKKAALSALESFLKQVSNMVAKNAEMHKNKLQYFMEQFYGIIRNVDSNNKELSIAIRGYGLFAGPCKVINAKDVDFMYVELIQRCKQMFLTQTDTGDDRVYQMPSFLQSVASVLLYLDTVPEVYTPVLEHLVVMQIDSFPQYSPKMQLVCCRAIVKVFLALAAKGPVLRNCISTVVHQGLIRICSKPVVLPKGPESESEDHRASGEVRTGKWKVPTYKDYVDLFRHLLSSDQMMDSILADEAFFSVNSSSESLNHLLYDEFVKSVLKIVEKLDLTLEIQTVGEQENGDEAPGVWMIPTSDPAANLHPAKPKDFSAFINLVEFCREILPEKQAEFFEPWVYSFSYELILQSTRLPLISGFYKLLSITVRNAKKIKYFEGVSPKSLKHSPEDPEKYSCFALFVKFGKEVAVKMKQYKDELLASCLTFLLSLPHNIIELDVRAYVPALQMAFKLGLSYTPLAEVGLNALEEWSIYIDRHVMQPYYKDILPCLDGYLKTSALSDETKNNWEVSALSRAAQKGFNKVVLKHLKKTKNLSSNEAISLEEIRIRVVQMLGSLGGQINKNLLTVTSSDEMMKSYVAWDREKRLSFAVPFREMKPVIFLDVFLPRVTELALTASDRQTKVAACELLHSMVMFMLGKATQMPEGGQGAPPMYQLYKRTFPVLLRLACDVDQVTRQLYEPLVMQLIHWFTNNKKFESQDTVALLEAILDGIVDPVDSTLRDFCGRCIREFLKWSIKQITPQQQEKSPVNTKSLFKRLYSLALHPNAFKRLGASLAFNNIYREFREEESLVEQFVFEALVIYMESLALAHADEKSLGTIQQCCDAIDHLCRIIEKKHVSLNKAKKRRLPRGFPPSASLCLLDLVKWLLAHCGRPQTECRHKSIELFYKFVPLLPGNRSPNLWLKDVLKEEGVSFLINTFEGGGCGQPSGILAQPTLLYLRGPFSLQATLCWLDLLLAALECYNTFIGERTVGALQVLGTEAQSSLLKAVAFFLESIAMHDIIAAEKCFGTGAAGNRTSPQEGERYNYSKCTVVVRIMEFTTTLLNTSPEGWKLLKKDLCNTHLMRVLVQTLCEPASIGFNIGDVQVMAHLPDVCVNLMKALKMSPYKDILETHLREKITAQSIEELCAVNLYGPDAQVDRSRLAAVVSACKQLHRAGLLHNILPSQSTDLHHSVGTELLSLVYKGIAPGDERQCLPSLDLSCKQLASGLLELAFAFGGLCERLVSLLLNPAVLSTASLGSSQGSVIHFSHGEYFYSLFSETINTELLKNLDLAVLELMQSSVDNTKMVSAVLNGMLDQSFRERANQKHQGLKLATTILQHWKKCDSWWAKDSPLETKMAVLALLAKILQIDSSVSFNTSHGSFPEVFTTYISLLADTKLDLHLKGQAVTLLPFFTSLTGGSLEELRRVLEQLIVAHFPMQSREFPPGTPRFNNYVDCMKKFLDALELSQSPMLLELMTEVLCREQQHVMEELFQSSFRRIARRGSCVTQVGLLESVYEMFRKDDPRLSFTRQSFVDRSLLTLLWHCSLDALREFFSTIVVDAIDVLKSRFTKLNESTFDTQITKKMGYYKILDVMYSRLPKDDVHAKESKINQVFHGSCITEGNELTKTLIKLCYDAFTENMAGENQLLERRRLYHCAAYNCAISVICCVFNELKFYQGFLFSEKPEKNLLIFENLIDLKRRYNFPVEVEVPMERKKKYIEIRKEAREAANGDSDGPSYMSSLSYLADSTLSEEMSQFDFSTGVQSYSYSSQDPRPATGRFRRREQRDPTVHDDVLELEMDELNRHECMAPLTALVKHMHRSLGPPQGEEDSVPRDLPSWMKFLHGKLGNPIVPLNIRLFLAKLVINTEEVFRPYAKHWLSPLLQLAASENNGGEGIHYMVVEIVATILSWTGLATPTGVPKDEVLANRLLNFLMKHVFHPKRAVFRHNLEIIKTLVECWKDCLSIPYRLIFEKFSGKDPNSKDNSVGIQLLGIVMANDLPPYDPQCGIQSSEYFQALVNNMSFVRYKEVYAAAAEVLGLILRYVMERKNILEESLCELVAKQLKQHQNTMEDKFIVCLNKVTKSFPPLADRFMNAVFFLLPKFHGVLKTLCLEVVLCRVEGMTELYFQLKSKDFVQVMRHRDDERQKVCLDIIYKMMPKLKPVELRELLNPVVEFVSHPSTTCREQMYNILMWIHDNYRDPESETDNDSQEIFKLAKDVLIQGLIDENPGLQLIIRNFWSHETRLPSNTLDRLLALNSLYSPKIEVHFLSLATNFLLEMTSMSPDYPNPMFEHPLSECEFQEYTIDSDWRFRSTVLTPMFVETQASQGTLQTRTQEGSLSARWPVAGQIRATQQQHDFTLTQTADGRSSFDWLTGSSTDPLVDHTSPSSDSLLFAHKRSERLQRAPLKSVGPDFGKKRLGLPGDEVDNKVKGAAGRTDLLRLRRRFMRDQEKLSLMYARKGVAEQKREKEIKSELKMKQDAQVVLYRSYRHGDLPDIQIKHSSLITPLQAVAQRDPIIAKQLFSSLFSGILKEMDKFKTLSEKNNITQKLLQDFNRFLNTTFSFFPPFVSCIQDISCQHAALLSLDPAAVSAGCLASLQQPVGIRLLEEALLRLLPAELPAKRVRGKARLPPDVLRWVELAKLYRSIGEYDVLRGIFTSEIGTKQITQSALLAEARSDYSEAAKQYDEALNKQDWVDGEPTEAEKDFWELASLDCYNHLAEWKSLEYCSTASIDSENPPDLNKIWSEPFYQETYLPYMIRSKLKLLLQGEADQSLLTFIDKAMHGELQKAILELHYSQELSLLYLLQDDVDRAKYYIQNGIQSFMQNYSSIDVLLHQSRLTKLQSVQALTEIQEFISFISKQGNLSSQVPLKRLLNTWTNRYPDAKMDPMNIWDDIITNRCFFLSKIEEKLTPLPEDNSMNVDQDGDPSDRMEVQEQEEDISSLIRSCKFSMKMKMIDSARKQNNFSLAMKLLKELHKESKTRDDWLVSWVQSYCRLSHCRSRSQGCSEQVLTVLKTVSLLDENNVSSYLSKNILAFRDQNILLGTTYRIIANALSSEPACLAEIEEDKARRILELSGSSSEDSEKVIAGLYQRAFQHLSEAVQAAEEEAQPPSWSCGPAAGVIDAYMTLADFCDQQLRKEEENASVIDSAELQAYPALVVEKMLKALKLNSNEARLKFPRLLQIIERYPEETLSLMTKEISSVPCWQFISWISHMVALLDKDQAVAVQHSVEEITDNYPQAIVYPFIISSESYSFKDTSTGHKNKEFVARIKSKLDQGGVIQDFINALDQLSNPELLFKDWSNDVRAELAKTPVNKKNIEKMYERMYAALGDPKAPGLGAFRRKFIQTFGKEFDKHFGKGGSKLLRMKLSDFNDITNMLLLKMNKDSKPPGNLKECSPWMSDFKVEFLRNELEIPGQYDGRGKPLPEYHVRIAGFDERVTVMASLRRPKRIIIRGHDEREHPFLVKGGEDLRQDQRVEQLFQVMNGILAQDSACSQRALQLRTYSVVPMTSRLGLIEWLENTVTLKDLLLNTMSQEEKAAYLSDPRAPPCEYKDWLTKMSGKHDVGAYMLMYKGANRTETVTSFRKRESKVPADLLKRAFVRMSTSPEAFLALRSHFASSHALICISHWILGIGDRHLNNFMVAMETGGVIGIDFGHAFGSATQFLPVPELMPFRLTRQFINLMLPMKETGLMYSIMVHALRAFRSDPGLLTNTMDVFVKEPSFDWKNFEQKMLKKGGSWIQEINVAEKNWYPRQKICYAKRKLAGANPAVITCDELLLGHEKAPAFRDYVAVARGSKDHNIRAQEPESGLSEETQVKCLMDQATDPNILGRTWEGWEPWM
assay: kinobeads assay, DNA-PK (dot blot detection)
Format: binding
condition_summary: Table 2, Jurkat cell lysate, read-out: Inhibition values (IC50) DNAPK
pIC50: −log10 of the molar value.
In this section, each of the compounds is paired with its reported pIC50.

mol	assayed_target	pIC50
CCNC(=O)Nc1ccc(-c2cc(-c3ccncc3)nc(N3CCOC[C@@H]3C)n2)cc1	DNA-dependent protein kinase (DNA-PK) (Homo sapiens)	≤ 5.00
C[C@H]1COCCN1c1nc(-c2ccc(NC(=O)NCC(N)=O)cc2)cc(-c2cc(F)ccc2S(C)(=O)=O)n1	DNA-dependent protein kinase (DNA-PK) (Homo sapiens)	≤ 5.00
CCNC(=O)Nc1ccc(-c2cc(-c3ccccc3S(=O)(=O)NC)nc(N3CCOCC3)n2)cc1	DNA-dependent protein kinase (DNA-PK) (Homo sapiens)	≤ 5.00
C[C@H]1COCCN1c1nc(-c2ccc(NC(=O)NC(C)(C)CO)cc2)cc(-c2cc(F)ccc2S(C)(=O)=O)n1	DNA-dependent protein kinase (DNA-PK) (Homo sapiens)	≤ 5.00
CCNC(=O)Nc1ccc(-c2nccc(N3CC4CCC(C3)O4)n2)cc1	DNA-dependent protein kinase (DNA-PK) (Homo sapiens)	5.00 to 6.00
CNC(=O)Nc1ccc(-c2nccc(N3CCOC[C@@H]3C)n2)cc1	DNA-dependent protein kinase (DNA-PK) (Homo sapiens)	≤ 5.00
CCNC(=O)Nc1ccc(-c2cc(-c3ccccc3NS(C)(=O)=O)nc(N3CCOC[C@@H]3C)n2)cc1	DNA-dependent protein kinase (DNA-PK) (Homo sapiens)	≤ 5.00

API: the following record is the query input.
In: # query: pIC50 of entry O=C(NCCF)Nc1ccc(-c2nccc(N3CC4CCC(C3)O4)n2)cc1
Out: 5.00 to 6.00

----------
assayed_target: kinases (kinome) (Homo sapiens)
Construct: determined in kinobeads assays with mass spectrometry detection of kinases as described previously; endogenous in cells; host or cells: cell lysate
assay: kinobeads assay with mass spectrometry detection of kinases (kinase selectivity profile)
Format: binding
condition_summary: ADCK1 (Atypical), IPI00787836
property: IC50

In: Can you share its IC50? I mean this compound: C[C@H]1COCCN1c1nc(-c2ccc(NC(=O)NC3CC3)cc2)cc(-c2cc(F)ccc2S(C)(=O)=O)n1
Out: > 10 µM

----------
assayed_target: kinases (kinome) (Homo sapiens, UniProt Q9Y6M4)
Construct: determined in kinobeads assays with mass spectrometry detection of kinases as described previously; endogenous in cells
assay: kinobeads assay with mass spectrometry detection of kinases (kinase selectivity profile)
condition_summary: CK1g3 (CK1), IPI00218437
pIC50: −log10 of the molar value.
property: pIC50

mol	pIC50
C[C@H]1COCCN1c1nc(-c2ccc(NC(=O)NC3CC3)cc2)cc(-c2ccccc2S(C)(=O)=O)n1	< 5.00

Attention now turns to another entry.
In: GET /values?readout=pIC50&system=kinases (kinome) (Homo sapiens, UniProt Q9Y6M4)&item= CCNC(=O)Nc1ccc(-c2cc(-c3ccccc3C#N)nc(N3CCOC[C@@H]3C)n2)cc1
Out: < 5.00

----------
assayed_target: kinases (kinome) (Homo sapiens)
Construct: determined in kinobeads assays with mass spectrometry detection of kinases as described previously; endogenous in cells
assay: kinobeads assay with mass spectrometry detection of kinases (kinase selectivity profile)
condition_summary: CK1a2 (CK1), IPI00167096
pIC50: −log10 of the molar value.
property: pIC50

In: Given the compound C[C@H]1COCCN1c1nc(-c2ccc(NC(=O)NC3CC3)cc2)cc(-c2cc(F)ccc2S(C)(=O)=O)n1 , what is its reported pIC50?
Out: < 5.00

----------
assayed_target: kinases (kinome) (Homo sapiens, UniProt O75716)
Construct: determined in kinobeads assays with mass spectrometry detection of kinases as described previously; endogenous in cells
Sequence (O75716 whole entry): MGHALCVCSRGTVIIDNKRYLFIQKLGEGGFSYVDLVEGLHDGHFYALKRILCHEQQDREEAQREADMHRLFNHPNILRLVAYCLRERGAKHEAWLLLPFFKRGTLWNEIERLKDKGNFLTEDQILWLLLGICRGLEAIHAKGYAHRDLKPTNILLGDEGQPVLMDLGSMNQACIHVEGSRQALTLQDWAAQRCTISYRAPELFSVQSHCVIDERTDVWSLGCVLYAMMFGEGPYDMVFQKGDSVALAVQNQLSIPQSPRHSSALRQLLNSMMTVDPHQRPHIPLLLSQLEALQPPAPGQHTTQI
assay: kinobeads assay with mass spectrometry detection of kinases (kinase selectivity profile)
condition_summary: MPSK1 (Other), IPI00915837
pIC50: −log10 of the molar value.
List of pIC50 values.

In: Endpoint output: pIC50 of C[C@H]1COCCN1c1nc(-c2ccc(NC(=O)NC3CC3)cc2)cc(-c2ccccc2S(C)(=O)=O)n1 . Value?
Out: < 5.00

In: Return reported pIC50; argument: C[C@H]1COCCN1c1cc(-c2ccccc2S(C)(=O)=O)nc(-c2ccc(NC(=O)NC3CC3)cc2)n1
Out: < 5.00

In: Which pIC50 value belongs to C[C@H]1COCCN1c1nc(-c2ccc(NC(=O)N[C@H]3CCC[C@@H]3O)cc2)cc(-c2cc(F)ccc2S(C)(=O)=O)n1 ?
Out: < 5.00

----------
Each item that follows carries a reported IC50.
assayed_target: kinases (kinome) (Homo sapiens)
Construct: determined in kinobeads assays with mass spectrometry detection of kinases as described previously; endogenous in cells
assay: kinobeads assay with mass spectrometry detection of kinases (kinase selectivity profile)
condition_summary: LYN (TK), IPI00298625

Worked examples follow.
mol	property	experimental_result
C[C@H]1COCCN1c1nc(-c2ccc(NC(=O)N[C@H]3CCC[C@@H]3O)cc2)cc(-c2cc(F)ccc2S(C)(=O)=O)n1	IC50	> 10 µM
C[C@H]1COCCN1c1cc(-c2ccccn2)nc(-c2ccc(NC(=O)NCCO)cc2)n1	IC50	> 10 µM

Please examine the following record next.
In: Item C[C@H]1COCCN1c1nc(-c2ccc(NC(=O)NC3CC3)cc2)cc(-c2ccccc2S(C)(=O)=O)n1 has what recorded IC50?
Out: > 10 µM
